Target: Adenosine A2A receptor (Homo sapiens)
Sequence (P29274 whole entry): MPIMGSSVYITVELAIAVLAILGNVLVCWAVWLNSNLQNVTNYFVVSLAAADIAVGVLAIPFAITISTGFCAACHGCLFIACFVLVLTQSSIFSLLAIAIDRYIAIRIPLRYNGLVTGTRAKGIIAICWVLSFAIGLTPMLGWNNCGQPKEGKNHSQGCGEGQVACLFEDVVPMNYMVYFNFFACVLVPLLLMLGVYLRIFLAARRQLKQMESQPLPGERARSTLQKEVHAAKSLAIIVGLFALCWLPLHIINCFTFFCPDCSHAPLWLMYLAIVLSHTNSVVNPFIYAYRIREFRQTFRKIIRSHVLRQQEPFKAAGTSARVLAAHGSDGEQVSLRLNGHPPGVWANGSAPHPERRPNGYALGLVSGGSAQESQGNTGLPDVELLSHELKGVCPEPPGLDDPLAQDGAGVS
Experiment: cAMP assay in 293A cells stably expressing the adenosine A2A receptor (CGS21680 stimulation, HTRF)
Type: cell-based
Parameters: expressed in transfected cells; host or cells: 293A cells (Invitrogen, Cat# R705-07) infected with A2A-expressing lentivirus (custom packaged by Biosettia), puromycin selected
Settings: 293A-A2AR cells, 0.1% BSA, 1 uM CGS; read-out: cAMP (nM) 0.1% BSA, 1 uM CGS
Procedure: A 293A cell line (Invitrogen, Cat# R705-07) stably expressing the adenosine A2A receptor was generated in house. Briefly, 293A cells were seeded in 6-well plate and infected with A2A expressing lentivirus (custom packaged by Biosettia) and selected with puromycin (1 ug/ml). […] After 1 h incubation at room temperature, plates were read in CIARIOstar plate reader (BMG Labtech) using the HTRF detection mode.
MEASURED_PARAMETER: IC50 (nM)
Entry rule: numbers only, all in nM.

Cc1cc(-c2c(OCc3cccc(N4CC(C)(O)C4)n3)nc(N)nc2-c2ccc(F)cc2)cc(C(F)F)n1 :: 1360

Looking up `CCn1[nH]c(=O)cc1COc1nc(N)nc(-c2ccc(F)cc2)c1-c1cc(C)nc(C(F)F)c1` , I found its IC50 recorded as 2550

Looking up `CCn1cnc(COc2nc(N)nc(-c3cccc(C#N)c3C)c2-c2cc(C)nc(C(F)F)c2)n1` , I found its IC50 recorded as 7920

Looking up `CCn1nccc1COc1nc(N)nc(-c2cccc(C#N)c2C)c1-c1cc(C)nc(C(F)F)c1` , I found its IC50 recorded as 2950

###

Recorded measurements of IC50, one per entry
system: p-CREB (phosphorylated cAMP response-element binding protein) in human whole blood; assay: p-CREB assay in human whole blood by flow cytometry (NECA stimulation, CD4 staining); format: cell-based; details: Homo sapiens, replicate values separated by /
Entry rule: numbers only, all in nM.

The following compounds have reported results that may help.
Cc1cc(-c2c(OCc3cccc(C(C#N)(CCO)CCO)n3)nc(N)nc2-c2ccc(F)cc2)cc(C(F)F)n1 :: 2000
Cc1cc(-c2c(OCc3cccc(NC(CO)CO)n3)nc(N)nc2-c2ccc(F)cc2)cc(C(F)F)n1 :: 208
Cc1cc(-c2c(OCc3cccc(CNCC(N)=O)n3)nc(N)nc2-c2ccc(F)cc2)cc(C(F)F)n1 :: 59

Item: `Cc1cc(-c2c(OCc3cccc(OC(CO)CO)n3)nc(N)nc2-c2ccc(F)cc2)cc(C(F)F)n1` | System: p-CREB (phosphorylated cAMP response-element binding protein) in human whole blood | IC50: 55.7

Item: `CNCc1cccc(COc2nc(N)nc(-c3ccc(F)cc3)c2-c2cc(C)nc(C(F)F)c2)n1` | System: p-CREB (phosphorylated cAMP response-element binding protein) in human whole blood | IC50: 108

###

biological target: UniProt P29274; test: cAMP assay in 293A cells stably expressing the adenosine A2A receptor (CGS21680 stimulation, HTRF); assay type: cell-based; design: expressed in transfected cells; host or cells: 293A cells (Invitrogen, Cat# R705-07) infected with A2A-expressing lentivirus (custom packaged by Biosettia), puromycin selected; settings: 293A-A2AR cells, 0.1% BSA, 1 uM CGS; read-out: cAMP (nM) 0.1% BSA, 1 uM CGS
Recorded measurements of IC50, one per entry
Entry rule: numbers only, all in nM.

Looking up CCc1c(COc2nc(N)nc(-c3ccc(F)cc3)c2-c2cc(C)nc(C(F)F)c2)nnn1CC(O)COC (centres unmarked) , I found its IC50 recorded as 1680
